Target: T1, 4H48-AA
T1 chain: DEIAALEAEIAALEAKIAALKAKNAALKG
Experiment: two-hybrid library CCmax;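 also: natural log of median RNA to DNA barcode read ratio; higher means stronger binding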
Conditions: mean of both orientations
Please respond with reported interaction score for every item in the list.

• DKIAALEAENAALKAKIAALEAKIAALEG [4H2277-AA] = -1.36
• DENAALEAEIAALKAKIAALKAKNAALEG [4H1135-AA] = 0.894

Return reported interaction score. Input binder: DEIAALEAKNAALKAEIAALEAKIAALKG [4H454-AA]
-0.839
